Biological target: Bifunctional 3'-5' exonuclease/ATP-dependent helicase WRN (Homo sapiens, UniProt Q14191)
Sequence (Q14191 whole entry): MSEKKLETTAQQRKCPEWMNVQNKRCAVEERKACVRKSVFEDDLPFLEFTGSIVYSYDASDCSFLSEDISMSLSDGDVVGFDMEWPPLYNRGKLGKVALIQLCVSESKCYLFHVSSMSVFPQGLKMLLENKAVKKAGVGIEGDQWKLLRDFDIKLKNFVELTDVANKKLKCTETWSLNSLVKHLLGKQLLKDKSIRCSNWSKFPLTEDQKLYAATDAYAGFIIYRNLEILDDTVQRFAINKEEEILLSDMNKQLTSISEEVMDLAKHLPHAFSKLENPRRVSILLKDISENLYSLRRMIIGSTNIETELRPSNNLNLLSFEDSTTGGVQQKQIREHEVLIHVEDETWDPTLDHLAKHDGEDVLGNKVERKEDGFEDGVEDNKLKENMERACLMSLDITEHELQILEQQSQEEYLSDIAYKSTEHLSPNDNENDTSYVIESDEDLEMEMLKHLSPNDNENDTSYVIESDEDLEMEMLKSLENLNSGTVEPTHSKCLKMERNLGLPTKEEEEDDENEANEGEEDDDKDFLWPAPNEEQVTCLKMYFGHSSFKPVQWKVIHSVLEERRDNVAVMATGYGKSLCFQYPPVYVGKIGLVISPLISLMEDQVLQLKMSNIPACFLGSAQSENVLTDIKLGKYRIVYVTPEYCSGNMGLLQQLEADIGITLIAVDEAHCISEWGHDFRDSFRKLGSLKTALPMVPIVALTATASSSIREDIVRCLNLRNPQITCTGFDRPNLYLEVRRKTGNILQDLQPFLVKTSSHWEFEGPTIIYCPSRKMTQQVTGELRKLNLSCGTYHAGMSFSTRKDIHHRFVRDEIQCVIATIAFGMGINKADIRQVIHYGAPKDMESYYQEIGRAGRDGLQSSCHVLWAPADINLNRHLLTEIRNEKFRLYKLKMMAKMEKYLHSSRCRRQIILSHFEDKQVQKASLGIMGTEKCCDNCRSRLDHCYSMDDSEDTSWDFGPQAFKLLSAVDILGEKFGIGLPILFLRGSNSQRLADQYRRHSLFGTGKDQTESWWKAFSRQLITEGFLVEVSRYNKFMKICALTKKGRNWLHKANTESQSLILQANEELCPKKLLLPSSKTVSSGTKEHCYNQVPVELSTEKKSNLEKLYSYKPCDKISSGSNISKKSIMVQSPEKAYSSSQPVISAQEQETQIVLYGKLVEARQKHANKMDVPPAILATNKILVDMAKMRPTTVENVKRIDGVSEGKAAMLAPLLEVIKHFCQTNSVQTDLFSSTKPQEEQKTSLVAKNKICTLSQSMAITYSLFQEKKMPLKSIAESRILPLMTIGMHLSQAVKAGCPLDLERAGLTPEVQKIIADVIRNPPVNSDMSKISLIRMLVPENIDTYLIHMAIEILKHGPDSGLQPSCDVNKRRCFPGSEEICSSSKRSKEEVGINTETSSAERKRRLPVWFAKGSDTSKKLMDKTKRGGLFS
Experiment: ADP-Glo Kinase Assay
pIC50: −log10 of the molar value.
readout: pIC50

compound | pIC50
CCc1c(N2CCN(C(=O)c3ncnc(C)c3O)CC2)c(=O)n2nc(-c3ccc4cn(C)nc4c3)nc2n1CC(=O)Nc1ccc(C(F)(F)F)cc1Cl [WO2025049746, Example 177] | 7.51
CCc1c(N2CCN(C(=O)c3cc4nnn(C)c4cc3OC)CC2)c(=O)n2nc(-c3ccc4c(c3)COC4)nc2n1CC(=O)Nc1ccc(C(F)(F)F)cc1Cl [WO2025049746, Example 429] | 6.93
CCc1c(N2CCN(C(=O)c3cn(C)[nH]c3=O)CC2)c(=O)n2nc(C3=CCOCC3)nc2n1CC(=O)Nc1ccc(C(F)(F)F)cc1Cl [WO2025049746, Example 33] | 7.51
CCc1c(N2CCN(C(=O)c3cccn4ccnc34)CC2)c(=O)n2nc(C3=CCOCC3)nc2n1CC(=O)Nc1ccc(C(F)(F)F)cc1Cl [WO2025049746, Example 50] | 6.81

a = CCc1c(N2CCN(C(=O)c3ncnc(C)c3O)CC2)c(=O)n2nc(-c3cc(C)c4c(c3)COC4(C)C)nc2n1CC(=O)Nc1ccc(C(F)(F)F)cc1Cl [WO2025049746, Example 221]
b = Cc1ncnc(C(=O)N2CCN(c3c4n(c5nc(-c6ccc7c(c6)COC7(C)C)nn5c3=O)[C@H](C(=O)Nc3ccc(C(F)(F)F)cc3Cl)C[C@@H]4C)CC2)c1O [WO2025049746, Example 471]
c = CCc1c(N2CCN(C(=O)c3ncnc(C)c3O)CC2)c(=O)n2nc(-c3ccn4ncnc4c3)nc2n1CC(=O)Nc1ccc(C(F)(F)F)cc1Cl [WO2025049746, Example 220]
Reorder the items by pIC50, least to greatest. When ranking, write the labels in the order the request describes. b, c, a

P = CCc1c(N2CCN(C(=O)c3ncnc(C)c3O)CC2)c(=O)n2nc(-c3ccc4c(c3)CC(C)(C)N4C)nc2n1CC(=O)Nc1ccc(C(F)(F)F)cc1Cl [WO2025049746, Example 316]
Q = CCc1c(N2CCN(C(=O)c3ncnc(C)c3O)CC2)c(=O)n2nc(-c3ccc4c(c3)COC4)nc2n1CC(=O)Nc1ccc(C=C(F)F)cc1Cl [WO2025049746, Example 421]
Of P and Q , whose reported pIC50 is numerically smaller? Let me know the label of the one you choose. P

a = CCc1c(N2CCN(C(=O)c3ncnc(C)c3O)CC2)c(=O)n2nc(-c3ccc4c(c3)C(=O)NC4)nc2n1CC(=O)Nc1ccc(C(F)(F)F)cc1Cl [WO2025049746, Example 188]
b = CCc1c(N2CCN(C(=O)c3ncnc(C)c3O)CC2)c(=O)n2nc(-c3cc(F)c4ncccc4c3F)nc2n1CC(=O)Nc1ccc(C(F)(F)F)cc1Cl [WO2025049746, Example 320]
Identify the item whose pIC50 is the smaller number: a or b Answer format: the label of the selected item. a

###

Molecular target: Bifunctional 3'-5' exonuclease/ATP-dependent helicase WRN (Homo sapiens)
Assay: ADP-Glo Kinase Assay
readout: IC50 (nM)

# count of solved cases: 2
smiles record | readout | assay result
CCc1c(N2CCN(C(=O)c3ncnc(C)c3O)CC2)c(=O)n2nc(-c3cc4c(cc3F)C(C)(C)OC4)nc2n1CC(=O)Nc1ccc(C(F)(F)F)cc1Cl | IC50 | 36
CCc1c(N2CCN(C(=O)c3ncnc4cc[nH]c34)CC2)c(=O)n2nc(-c3ccc4c(c3)COC4)nc2n1CC(=O)Nc1ccc(C(F)(F)F)cc1Cl | IC50 | 44

a = CCc1c(N2CCN(C(=O)c3ncnc(C)c3O)CC2)c(=O)n2nc(C3=CCOCC3)nc2n1CC(=O)Nc1ccc(OC(F)(F)Cl)cc1Cl
b = CCc1c(N2CCN(C(=O)c3ncnc(C)c3O)CC2)c(=O)n2nc(-c3cc(OC(F)F)n4nccc4c3F)nc2n1CC(=O)Nc1ccc(C(F)(F)F)cc1Cl
Given the listed records, identify the one among a and b with higher IC50. Output the label that corresponds to your choice. b
(b: 75 nM, a: 49 nM)
